Parameter: IC50. Scope: all listed entries.
- target.of.assay: purified Z-AAT protein from human plasma (Homo sapiens (Human), UniProt P01009, E366K)
- Sequence (P01009 25-418 E366K limits assumed): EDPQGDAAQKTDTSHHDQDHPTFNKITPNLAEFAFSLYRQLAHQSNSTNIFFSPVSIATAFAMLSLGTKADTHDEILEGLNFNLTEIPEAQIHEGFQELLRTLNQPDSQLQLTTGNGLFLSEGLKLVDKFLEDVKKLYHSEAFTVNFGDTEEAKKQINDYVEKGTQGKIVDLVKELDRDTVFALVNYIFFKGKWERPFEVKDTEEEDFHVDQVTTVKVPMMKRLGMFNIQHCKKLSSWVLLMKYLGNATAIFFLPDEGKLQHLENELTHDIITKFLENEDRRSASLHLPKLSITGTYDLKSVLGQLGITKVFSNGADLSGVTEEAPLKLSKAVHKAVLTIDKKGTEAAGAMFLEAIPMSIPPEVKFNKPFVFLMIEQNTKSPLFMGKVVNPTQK
- protocol.details: Biochemical Assay (Z-AAT Elastase Activity Assay)
- condition.parameters: purified Z-AAT pre-incubated with compound 1 hour, then human neutrophil elastase and fluorescent substrate
measured.property: IC50

compound	measured.property	endpoint.result
N#Cc1c(C2CCCO2)n(-c2ccc(F)cc2)c2ccc(O)cc12 (stereo not shown)	IC50	> 30 µM
Cc1cc(-n2c(C(C)C)c([C@H]3C[C@@H](C(=O)O)C3)c3cc(O)ccc32)ccc1F [Compound 98]	IC50	> 30 µM
O=C(O)[C@H]1C[C@@H](Cc2c(C3CCOCC3)n(-c3ccc(F)cc3)c3ccc(O)cc23)C1	IC50	> 30 µM
CC(C)(CCc1c(C2CCOCC2)n(-c2ccc(F)c(Cl)c2)c2ccc(O)cc12)C(=O)O	IC50	> 30 µM
Cc1cc(-n2c(C(C)C)c(CC(C)C(=O)O)c3cc(O)ccc32)ccc1F (single isomer, unassigned) [Compound 101]	IC50	> 30 µM
Cc1cc(-n2c([C@@H]3CCOC3)c([C@H]3C[C@@H](C(=O)O)C3)c3cc(O)ccc32)ccc1F	IC50	> 30 µM
O=C(O)[C@H]1CC[C@H](c2c(C3CCOCC3)n(-c3ccc(F)c(F)c3)c3ccc(O)cc32)CC1	IC50	> 30 µM
Cc1cc(-n2c(C(C)C)c([C@H]3C[C@@H](c4nn[nH]n4)C3)c3cc(O)ccc32)ccc1F	IC50	> 5 µM
COCC(C)(C)c1c(C2CC(C(=O)O)C2)c2cc(O)ccc2n1-c1ccc(F)c(C)c1 (stereo not shown)	IC50	> 30 µM
Cc1cc(-n2c(C(F)(F)F)c(C3CC4(CC(C(=O)O)C4)C3)c3cc(O)ccc32)ccc1F (stereo not shown)	IC50	> 5 µM

----------
Parameter: IC50. Scope: all listed entries.
- target.of.assay: purified Z-AAT protein from human plasma (Homo sapiens (Human), UniProt P01009, E366K)
- protocol.details: Biochemical Assay (Z-AAT Elastase Activity Assay)
- condition.parameters: purified Z-AAT pre-incubated with compound 1 hour, then human neutrophil elastase and fluorescent substrate

molecule	IC50
CC(C)c1c(C(C)CCC(=O)O)c2cc(O)ccc2n1-c1ccc(F)cc1 (stereo not shown)	> 5 µM
Cc1cc(-n2c(C3CCOCC3)c(C[C@H]3CC[C@H](C(=O)O)CC3)c3cc(O)ccc32)ccc1F	> 30 µM
C[C@]1(C(=O)O)C[C@@H](c2c(C3CCOCC3)n(-c3ccc(F)c(Cl)c3)c3ccc(O)cc32)C1	> 30 µM
O=C(O)[C@]1(C(F)(F)F)C[C@@H](c2c(C3CCOCC3)n(-c3ccc(F)c(Cl)c3)c3ccc(O)cc32)C1	> 5 µM
CC(C)(C)OC(=O)N1CC(c2c(C#N)c3cc(O)ccc3n2-c2ccc(F)cc2)C1	> 30 µM
N#Cc1c(C2CCNCC2)n(-c2ccc(F)cc2)c2ccc(O)cc12	> 30 µM
Cc1cc(-n2c(C(C)C)c(CC3(C(=O)O)CC3)c3cc(O)ccc32)ccc1F	> 5 µM
O=C(O)[C@H]1C[C@@H](c2c(C3CCOCC3)n(-c3ccc(F)c(F)c3)c3ccc(O)cc32)C1	> 30 µM
CCCn1c(C(C)C)c(C#N)c2cc(O)ccc21	> 30 µM
COCC(C)(C)c1c(-c2ccc(C(=O)O)cc2)c2cc(O)c(Cl)cc2n1-c1ccc(F)cc1	< 2 µM
Cc1cc(-n2c(C(C)C)c([C@H]3C[C@](C)(C(=O)O)C3)c3cc(O)ccc32)ccc1F	> 5 µM
Cc1cc(-n2c(C(C)C)c([C@H]3C[C@H](C(=O)O)C3)c3cc(O)c(F)cc32)ccc1F	> 5 µM
Cc1cc(-n2c([C@H]3CCOC3)c([C@H]3C[C@H](C(=O)O)C3)c3cc(O)ccc32)ccc1F	> 30 µM
CCC(C(=O)O)c1c(C)n(-c2ccc(F)c(C)c2)c2ccc(O)cc12 (stereo not shown)	> 30 µM
Cc1cc(-n2c(C3CC3)c(CC(=O)O)c3cc(O)ccc32)ccc1F	> 30 µM
CC(C)(C)OC(=O)N1CCC(c2c(C#N)c3cc(O)ccc3n2-c2ccc(F)cc2)CC1	> 30 µM
O=C(O)[C@H]1C[C@H](c2c(C3CCOCC3)n(-c3ccc(F)c(Cl)c3)c3ccc(O)cc32)C1	> 30 µM
CCc1c([C@H]2C[C@@H]2C(=O)O)c2cc(O)ccc2n1-c1ccc(F)c(C)c1	> 30 µM
Cc1cc(-n2c(C3CCOCC3)c([C@H]3C[C@@H]3C(=O)O)c3cc(O)ccc32)ccc1F (relative stereo)	> 30 µM

----------
- target.of.assay: purified Z-AAT protein from human plasma (Homo sapiens (Human), UniProt P01009, E366K)
- protocol.details: Biochemical Assay (Z-AAT Elastase Activity Assay)
- condition.parameters: purified Z-AAT pre-incubated with compound 1 hour, then human neutrophil elastase and fluorescent substrate
pIC50: −log10 of the molar value.
Parameter: pIC50. Scope: all listed entries.
measured.property: pIC50

compound	endpoint.result
Cc1cc(-n2c(C3CCOCC3)c([C@H]3C[C@](C(=O)O)(C(F)F)C3)c3cc(O)ccc32)ccc1F	< 4.52
C[C@]1(C(=O)O)C[C@H](c2c(C3CCOCC3)n(-c3ccc(F)c(Cl)c3)c3ccc(O)cc32)C1	< 5.30
CC(C)c1c([C@H]2C[C@@H](C(=O)O)C2)c2cc(O)ccc2n1-c1ccc(F)cc1	< 4.52
COC[C@]1(C(=O)O)C[C@@H](c2c(C3CCOCC3)n(-c3ccc(F)c(C)c3)c3ccc(O)cc32)C1 [Compound 107]	< 4.52
Cc1cc(-n2c(C(C)C)c([C@H]3C[C@H](C(=O)O)C3)c3c(F)c(O)ccc32)ccc1F	5.30 to 5.70
Cc1cc(-n2c(C(C)C)c([C@H]3C[C@@H](C(=O)O)C3)c3cc(O)c(F)cc32)ccc1F	< 5.30
Cc1cc(-n2c(C(C)C)c([C@H]3C[C@@H](CC(=O)O)C3)c3cc(O)ccc32)ccc1F	< 5.30
Cc1cc(-n2c(C(C)C)c([C@H]3C[C@@H](C(=O)O)C3)c3c(F)c(O)ccc32)ccc1F	< 5.30
Cc1cc(-n2c(C3CCOCC3)c([C@H]3C[C@H](c4noc(=O)[nH]4)C3)c3cc(O)ccc32)ccc1F	< 4.52
